EC50 reference
measured target: wild-type and mutant CD3 binding domains harbored within TROP2 TCE constructs
assay procedure: ELISA binding of peptide masks to wild-type and mutated TROP2 TCEs
conditions: read-out: TCE-13 (3085) (S110A) EC50; captured biotinylated peptide or CD3-biotin; binding of TCE-13, anti-CD3 S110A
property measured: EC50 (nM)

compound	obs value
CSCC[C@H](NC(=O)[C@@H]1CSSC[C@H](NC(=O)[C@H](Cc2ccc(O)cc2)NC(=O)[C@@H](N)C(C)C)C(=O)NCC(=O)N2CCC[C@H]2C(=O)N[C@@H](CCC(=O)O)C(=O)N[C@@H](Cc2ccccc2)C(=O)N[C@@H](CC(=O)O)C(=O)N[C@@H](CCC(=O)O)C(=O)N[C@@H](CO)C(=O)N[C@@H](C(C)C)C(=O)NCC(=O)N1)C(=O)O [Peptide-3]	0.66
CC(C)C[C@@H]1NC(=O)[C@H](CC(=O)O)NC(=O)[C@H](C(C)C)NC(=O)[C@H](CC(C)C)NC(=O)[C@@H](NC(=O)[C@H](CCC(=O)O)NC(=O)[C@@H](N)CO)CSSC[C@@H](C(=O)N[C@@H](Cc2ccc(O)cc2)C(=O)N[C@@H](Cc2c[nH]c3ccccc23)C(=O)O)NC(=O)[C@@H]2CCCN2C(=O)[C@H](CC(=O)O)NC(=O)[C@H](CO)NC(=O)[C@H](CCC(N)=O)NC1=O [Peptide-5]	0.95
CSCC[C@H](NC(=O)[C@@H]1CSSC[C@H](NC(=O)[C@H](Cc2ccc(O)cc2)NC(=O)[C@H](C)N)C(=O)NCC(=O)N2CCC[C@H]2C(=O)N[C@@H](CCC(=O)O)C(=O)N[C@@H](Cc2ccccc2)C(=O)N[C@@H](CC(=O)O)C(=O)N[C@@H](CCC(=O)O)C(=O)N[C@@H](CO)C(=O)N[C@@H](C(C)C)C(=O)NCC(=O)N1)C(=O)O [Peptide-8]	0.76

* * *

pEC50 reference
measured target: wild-type and mutant CD3 binding domains harbored within TROP2 TCE constructs
assay procedure: ELISA binding of peptide masks to wild-type and mutated TROP2 TCEs
conditions: read-out: TCE-14 (3086) (Y111A) EC50; captured biotinylated peptide or CD3-biotin; binding of TCE-14, anti-CD3 Y111A
pEC50: −log10 of the molar value.
property measured: pEC50

molecule	measured target	property measured	obs value
CC(C)C[C@@H]1NC(=O)[C@@H](NC(=O)[C@H](CCC(N)=O)NC(=O)[C@H](CO)NC(=O)[C@H](C)N)CSSC[C@@H](C(=O)N2CCC[C@H]2C(=O)N[C@@H](Cc2ccc(O)cc2)C(=O)O)NC(=O)[C@H](C(C)C)NC(=O)[C@H](CCC(=O)O)NC(=O)[C@H](Cc2c[nH]c3ccccc23)NC(=O)[C@H](CCC(=O)O)NC(=O)[C@@H]2CCCN2C(=O)CNC1=O [Peptide-10]	wild-type and mutant CD3 binding domains harbored within TROP2 TCE constructs	pEC50	7.19
CC(C)C[C@@H]1NC(=O)[C@H](CC(=O)O)NC(=O)[C@H](C(C)C)NC(=O)[C@H](CC(C)C)NC(=O)[C@@H](NC(=O)[C@H](CCC(=O)O)NC(=O)[C@@H](N)CO)CSSC[C@@H](C(=O)N[C@@H](Cc2ccc(O)cc2)C(=O)N[C@@H](Cc2c[nH]c3ccccc23)C(=O)O)NC(=O)[C@@H]2CCCN2C(=O)[C@H](CC(=O)O)NC(=O)[C@H](CO)NC(=O)[C@H](CCC(N)=O)NC1=O [Peptide-5]	wild-type and mutant CD3 binding domains harbored within TROP2 TCE constructs	pEC50	6.24
CC(C)C[C@@H]1NC(=O)[C@@H](NC(=O)[C@H](C)NC(=O)[C@H](CO)NC(=O)CN)CSSC[C@@H](C(=O)N2CCC[C@H]2C(=O)N[C@@H](Cc2ccc(O)cc2)C(=O)O)NC(=O)[C@H](C(C)C)NC(=O)[C@H](CCC(=O)O)NC(=O)[C@H](Cc2c[nH]c3ccccc23)NC(=O)[C@H](CCC(=O)O)NC(=O)[C@@H]2CCCN2C(=O)CNC1=O [Peptide-11]	wild-type and mutant CD3 binding domains harbored within TROP2 TCE constructs	pEC50	7.02
